- Test system: SB.msgc-1
- ASSAY PROCEDURE: AC50 for growth inhibition (viability) (log10 M); higher = less potent
- EXPERIMENTAL CONDITIONS: SB.msgc-1 (sporadic gastric cancer)
EXPERIMENTAL READOUT: AC50 for growth inhibition (log10 M)

Consider the following illustrative entries.
STRUCTURE AS SMILES | ASSAY RESULT
CC(C)c1ccccc1Cc1cc(C(=O)Nc2ccc([S+](=O)([O-])c3ccccc3C(C)(C)C)cc2)c(O)c(O)c1O | -5.13
CC(C)n1cnc2c(NCCc3ccc(O)cc3)nc(-c3csc4ccccc34)nc21 | -4.88

Consider now this further molecule.
What AC50 for growth inhibition (log10 M) value was documented for this molecule, "O=C(NCc1ccncc1)C12C[C@H]3C[C@@H](C1)CC(c1ccc(Cl)cc1)(C3)C2" ? -4.98

====

- Tested on: SB.msgc-1
- ASSAY PROCEDURE: area under the dose-response curve of % viability (trapezoidal, 11 doses) (% viability x log10 concentration); higher = less cytotoxic
- EXPERIMENTAL CONDITIONS: SB.msgc-1 (sporadic gastric cancer)
Where a name gives a salt, the structure may show the parent alone.
Decide using area under the dose-response curve: a value greater than or equal to 500 is satisfied, a smaller one is not satisfied.

Below, 5 molecules whose answers are already recorded.
MOLECULE | TGT | CAT
NC/1=N/C(=O)C2=C([NH]C=C2CCC3=CC=C(C=C3)C(=O)N[C@@H](CCC(O)=O)C(O)=O)N1 [Pemetrexed disodium] (top concentration 46.0829 µM) | SB.msgc-1 | not satisfied
O=C1CSC(=O)N1C(CCc1ccncc1)COc1ccc(-c2cccc([N+](=O)[O-])c2)cc1 (centres undefined) (top concentration 46.0829 µM) | SB.msgc-1 | not satisfied
CCOC(=O)[C@H](CCc1ccccc1)N[C@@H](C)C(=O)N1CCC[C@H]1C(=O)O [Enalapril maleate] (top concentration 46.0829 µM) | SB.msgc-1 | satisfied
C/C=C(/C)C(=O)O[C@H]1C(C)=C[C@]23C(=O)[C@@H](C=C(CO)[C@@H](O)[C@]12O)[C@H]1[C@@H](C[C@H]3C)C1(C)C [Ingenol mebutate] (top concentration 46.0829 µM) | SB.msgc-1 | not satisfied
c1ccc(-c2oc3ncnc(NC[C@@H]4CCCO4)c3c2-c2ccccc2)cc1 [AIM-100] (top concentration 46.0829 µM) | SB.msgc-1 | not satisfied

Decide: area under the dose-response curve of C[S+](=O)([O-])CCNCc1ccc(-c2ccc3ncnc(Nc4ccc(OCc5cccc(F)c5)c(Cl)c4)c3c2)o1 [Lapatinib] (top concentration 46.0829 µM) >= 500? not satisfied

Decide: area under the dose-response curve of Nc1nc(NCCNc2ncc(-n3ccnc3)c(-c3ccc(Cl)cc3Cl)n2)ccc1[N+](=O)[O-] (top concentration 46.0829 µM) >= 500? not satisfied

Decide: area under the dose-response curve of CNC(=O)c1ccc2cc(C3(O)CCn4cncc43)ccc2c1 (centres undefined) [Orteronel] (top concentration 46.0829 µM) >= 500? satisfied

Decide: area under the dose-response curve of NC(=O)c1cnc(-c2ccc(C3(N)CCC3)cc2)c(-c2ccccc2)c1 [AZD-26] (top concentration 46.0829 µM) >= 500? not satisfied

Decide: area under the dose-response curve of CC/1=C(/C(CC(=O)N1)C2=CC=C(C=C2)C(F)(F)F)C(=O)NC3=C(F)C=C4[NH]N=CC4=C3 (centres undefined) (top concentration 46.0829 µM) >= 500? satisfied

Decide: area under the dose-response curve of CC(C)CC(=O)Nc1n[nH]c2c1CN(C(=O)C1CCN(C)CC1)C2(C)C (top concentration 46.0829 µM) >= 500? not satisfied

Decide: area under the dose-response curve of Cc1n[nH]c2ccc(-c3cncc(OC[C@@H](N)Cc4ccccc4)c3)cc12 (top concentration 46.0829 µM) >= 500? not satisfied

Decide: area under the dose-response curve of CC1=C(/C=C/C(C)=C/C=C/C(C)=C/C=C/C=C(C)/C=C/C=C(C)/C=C/C2=C(C)CCCC2(C)C)C(C)(C)CCC1 [beta-Carotene] (top concentration 46.0829 µM) >= 500? not satisfied
